Molecular target: Intercellular adhesion molecule 1 (Homo sapiens)
Sequence (P05362 whole entry): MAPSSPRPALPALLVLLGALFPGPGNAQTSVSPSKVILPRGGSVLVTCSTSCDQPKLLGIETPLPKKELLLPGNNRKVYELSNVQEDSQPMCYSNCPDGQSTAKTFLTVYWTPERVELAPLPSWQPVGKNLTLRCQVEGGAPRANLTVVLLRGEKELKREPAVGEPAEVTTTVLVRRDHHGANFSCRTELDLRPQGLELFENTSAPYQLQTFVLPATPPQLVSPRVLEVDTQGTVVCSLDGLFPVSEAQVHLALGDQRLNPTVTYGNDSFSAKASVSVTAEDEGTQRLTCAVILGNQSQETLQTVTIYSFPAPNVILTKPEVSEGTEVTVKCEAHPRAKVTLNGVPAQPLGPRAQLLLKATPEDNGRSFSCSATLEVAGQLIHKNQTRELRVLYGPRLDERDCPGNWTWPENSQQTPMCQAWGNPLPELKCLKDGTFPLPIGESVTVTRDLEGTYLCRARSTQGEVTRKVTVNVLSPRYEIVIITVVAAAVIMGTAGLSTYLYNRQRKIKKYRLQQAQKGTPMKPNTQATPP
Experiment: In vitro inhibitory potency compared to IL1-beta induced Intercellular adhesion molecule-1 in human endothelial cells (ELISA assay)
Type: cell-based, Endothelial cell
PARAMETER_MEASURED: pIC50
Lab note — pIC50 values are minus log10 of concentrations in M.

Looking for the measured pIC50 of CNC(=O)c1cc2c(Oc3ccc(COCCOCCOC)cc3)cncc2s1 , can you help?
8.70

Likewise for NC(=O)c1cc2c(Oc3ccc(Br)cc3)cncc2s1 ?
8.52

Further cases:
What value of pIC50 has been reported for the following compound? CNC(=O)c1cc2c(Oc3ccc(Cl)cc3)cncc2s1
8.00

----------
Biological target: Intercellular adhesion molecule 1 (Homo sapiens)
Assay: Inhibition of intercellular adhesion molecule-1 (ICAM1) in human endothelial cells
Assay type: cell-based, Endothelial cell
Catalogue of pIC50 readings, one per entry.
To interpret pIC50, take it as minus log10 of a concentration measured in moles per litre.

Please review the following examples before continuing.
Name the reported pIC50 value associated with the compound CNC(=O)c1cc2c(Oc3ccc(COC)cc3)cncc2s1
7.77

Next compound: CNC(=O)c1cc2c(Oc3ccc(/C=C/C(=O)NCC(O)CO)cc3)cncc2s1 (stereo unspecified)
6.24

What about this compound? CNC(=O)c1cc2c(Oc3ccc(/C=C/C(=O)NCCN(CCO)CCO)cc3)cncc2s1
6.22

Continuing:
Requested field: pIC50. Item: CNC(=O)c1cc2c(Oc3ccc(C(=N)NO)cc3)cncc2s1
7.23

Now the same for NC(=O)c1cc2c(Oc3ccc(COC4CCCCO4)cc3)cncc2s1 (stereo unspecified)
8.85

Would you kindly repeat that for CNC(=O)c1cc2c(Oc3ccc(-n4ccnc4)cc3)cncc2s1 ?
8.22

Do the same for CNC(=O)c1cc2c(Oc3ccc(/C=C/C(=O)NCCc4c[nH]cn4)cc3)cncc2s1 please
6.17

Again, but for NC(=O)c1cc2c(Oc3ccc(Cl)cc3Br)cncc2s1
6.52

Cool, now NC(=O)c1cc2c(Oc3ccc(C(O)CO)cc3)cncc2s1 (stereo unspecified)
6.17

----------
Biological target: E-selectin (Homo sapiens)
Test: In vitro inhibitory potency compared to PMA induced Selectin E expression in human endothelial cells (ELISA assay) at 1 uM
Format: cell-based
Conditions: Endothelial cell
Reported inhibition by item:
Just the number please, in %, no unit attached.

# example entries with known answers
# query: inhibition | item CNC(=O)c1cc2c(Oc3ccc(Cl)cc3)cncc2s1 | system: E-selectin (Homo sapiens)
43

Same for CNC(=O)c1cc2c(Oc3ccc(COCCOCCOC)cc3)cncc2s1
46

What would you report for Cc1ccc(Sc2cncc3sc(C(N)=O)cc23)cc1 ?
44

Moving on to the next molecule.
Form entry - test system: E-selectin (Homo sapiens); read-out: inhibition; molecule: NC(=O)c1cc2c(Oc3ccc(Br)cc3)cncc2s1
48

----------
Target: E-selectin (Homo sapiens, UniProt P16581)
Sequence (P16581 whole entry): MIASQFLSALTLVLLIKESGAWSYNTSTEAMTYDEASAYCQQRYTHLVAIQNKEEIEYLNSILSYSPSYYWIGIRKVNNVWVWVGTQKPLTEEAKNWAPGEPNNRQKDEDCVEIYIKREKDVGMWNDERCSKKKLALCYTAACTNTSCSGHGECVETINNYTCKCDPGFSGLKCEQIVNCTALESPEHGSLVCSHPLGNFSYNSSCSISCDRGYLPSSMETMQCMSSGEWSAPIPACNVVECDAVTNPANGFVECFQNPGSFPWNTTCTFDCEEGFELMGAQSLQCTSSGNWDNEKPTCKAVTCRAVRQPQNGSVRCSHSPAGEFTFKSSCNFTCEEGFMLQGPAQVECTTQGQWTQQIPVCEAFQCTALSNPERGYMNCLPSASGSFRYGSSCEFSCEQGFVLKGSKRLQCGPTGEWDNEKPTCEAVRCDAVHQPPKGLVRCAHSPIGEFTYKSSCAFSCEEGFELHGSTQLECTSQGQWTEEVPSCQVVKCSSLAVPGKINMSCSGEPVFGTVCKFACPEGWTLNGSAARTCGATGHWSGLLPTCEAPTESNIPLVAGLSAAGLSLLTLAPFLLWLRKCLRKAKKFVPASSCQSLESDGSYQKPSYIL
Assay: In vitro inhibitory potency compared to IL1-beta induced Selectin E expression in human endothelial cells (ELISA assay)
Assay type: cell-based, Endothelial cell
PARAMETER_MEASURED: pIC50
// returns pIC50 (minus log10 of molar concentration), number only

Quick one: pIC50 of Cc1ccc(Sc2cncc3sc(C(N)=O)cc23)cc1 ?
7.60

----------
Reported IC50 values for the following molecules.
Biological target: E-selectin (Homo sapiens, UniProt P16581)
Experiment: In vitro inhibitory potency compared to TNF-alpha induced Selectin E expression in human endothelial cells (ELISA assay)
Type: cell-based, Endothelial cell
Reply numerically in nM, unit not repeated.

Consider the molecule shown here: CNC(=O)c1cc2c(Oc3ccc(Cl)cc3)cncc2s1 What is its recorded IC50?
20

Another molecule: Cc1ccc(Sc2cncc3sc(C(N)=O)cc23)cc1
15

Please turn your attention to the following entry.
I'd like to know its IC50. The molecule in question is NC(=O)c1cc2c(Oc3ccc(Br)cc3)cncc2s1
4
